This collection of values is drawn from ChEMBL document CHEMBL4011591.

test: Plasma concentration in Balb-C mouse at 10 mg/kg, po measured after 62 mins by LC-MS analysis; type: ADME, organism-based
MEASURED QUANTITY: concentration at 62 min (ng/mL)
Give bare numbers, in ng/mL.

Given N#C/N=C(/NCc1cccnc1)NCC12CC3CC(CC(C3)C1)C2 , state its recorded concentration at 62 min.
5.8

* * *

experiment: Cmax in Balb-C mouse at 1 mg/kg, iv administered as bolus dose by LC-MS method; assay type: ADME, organism-based; design: dose 1 mg/kg, route intravenous; conditions: in vivo
MEASURED QUANTITY: Cmax (nM)
Answers are plain numbers, in nM.

Given N#C/N=C(/NCc1cccnc1)NCC12CC3CC(CC(C3)C1)C2 , state its recorded Cmax.
912
